Hello, the source for this data is ChEMBL document CHEMBL1150408, in case you need it.

Assay: Dissociation constant, pKa of the compound
Format: physicochemical

| smiles | pKa |
| --- | --- |
| O=C1NC(=O)[C@@]2(CCOc3ccc(F)cc32)N1 | 8 |

###

Target: Aldose reductase (Bos taurus)
Test: Inhibition of ALR2
pIC50: −log10 of the molar value.

| smiles | pIC50 |
| --- | --- |
| O=C(O)CN1C(=O)S/C(=C\c2ccc(O)cc2)C1=O | 6.82 |

###

Below are IC50 values recorded for Aldo-keto reductase family 1 member B1 (Bos taurus, UniProt P16116).

| smiles | IC50 / µM |
| --- | --- |
| O=C(CN1C(=O)S/C(=C\c2ccc(Oc3ccccc3)cc2)C1=O)NO | 3.67 |
| O=C(CN1C(=O)S/C(=C\c2cccc3ccccc23)C1=O)NO | 4.2 |

###

# inhibition per record follows
Target: Aldo-keto reductase family 1 member B1 (Bos taurus) (UniProt P16116)
Test: Inhibition of bovine lens ALR2 at 12.5 uM assessed as reduction of D,L-glyceraldehyde by spectrophotometry
Type: tissue-based
Settings: Lens of camera-type eye

| smiles | inhibition |
| --- | --- |
| NC(=O)CN1C(=O)S/C(=C\c2cccc3ccccc23)C1=O | 32% |
| COc1cc(/C=C2\SC(=O)N(CC(N)=O)C2=O)ccc1O | 31% |
| NC(=O)CN1C(=O)S/C(=C\c2ccc3ccccc3c2)C1=O | 3% |
| COc1ccc(/C=C2\SC(=O)N(CC(N)=O)C2=O)cc1O | 0% |
| NC(=O)CN1C(=O)S/C(=C\c2ccc(Oc3ccccc3)cc2)C1=O | 0% |
| COc1ccc(/C=C2\SC(=O)N(CC(N)=O)C2=O)cc1 | 0% |
| NC(=O)CN1C(=O)S/C(=C\c2ccc(-c3ccccc3)cc2)C1=O | 18% |
| NC(=O)CN1C(=O)S/C(=C\c2cccc(O)c2)C1=O | 16% |
| COc1cccc(/C=C2\SC(=O)N(CC(N)=O)C2=O)c1 | 10% |
| NC(=O)CN1C(=O)S/C(=C\c2cccc(Oc3ccccc3)c2)C1=O | 8% |
